The measurements presented in this section are drawn from PubChem BioAssay (NCI).

Test system: TK-10 renal
Assay: NCI-60 one-dose screen, 48 h (100 = growth as untreated, 0 = no growth, -100 = all killed)
Conditions: 10 µM unless noted
The panel holds about 83,000 compounds, 20% with a hit somewhere; the sample as a whole holds those more often. Active and inactive are the calls of the source. Rule for the calls: active = growth percent below 10; inactive = the rest.
result-type: growth

molecule=Cc1ccc(/C=C2\CN(C(=O)C(Cl)Cl)C/C(=C\c3ccc(C)cc3)C2=O)cc1 result_type=growth recorded_value="-63.1% (active)"
molecule=COc1ccc(Nc2ncc(C(N)=O)c(NCCCNC(=O)C3CCC3)n2)cc1 result_type=growth recorded_value="34.4% (inactive)"
molecule=CC(C)[C@@]12C[C@@H](OC(=O)COC(=O)c3ccccc3)[C@@](C)(O1)[C@@H]1CC[C@@H](C)[C@H]1[C@@H]2OC(=O)/C=C/c1ccccc1 result_type=growth recorded_value="88.9% (inactive)"
molecule=N/C(=N\c1nc2ccccc2s1)NC(=NC1CCCCC1)NC1CCCCC1 result_type=growth recorded_value="69.2% (inactive)"
molecule=Cc1cccc(-n2c(C)nc3ccc(N4CCCNC4=O)cc3c2=O)c1 result_type=growth recorded_value="104% (inactive)"
molecule=COc1ccc(/C=C/C(=O)c2ccc(Nc3nc(Nc4ccc(F)cc4)nc(Nc4ccc(Cl)cc4)n3)cc2)cc1 result_type=growth recorded_value="137% (inactive)"
molecule=COc1ccc(OC)c(-c2cn3nc(-c4c[nH]c5ccc(Br)cc45)sc3n2)c1 result_type=growth recorded_value="62% (inactive)"
molecule="C[Se]C(=O)CC1=C2C=C(F)C=CC2/C(=C\\c2ccc(S(C)=O)cc2)C1C (stereo not drawn)" result_type=growth recorded_value="-19.2% (active)"
molecule=CCNc1nc(-c2ccc(F)cc2)c(C#N)c(=O)n1C result_type=growth recorded_value="34% (inactive)"
molecule=C/C(=N\O)C(=O)NCCCCCC(=O)Nc1ccccc1 result_type=growth recorded_value="89.6% (inactive)"
molecule=O=C(Nc1ccc(F)cc1)Nc1ccccc1CNc1nc(Nc2ccc(OCCN3CCCC3)cc2)ncc1Cl result_type=growth recorded_value="47.2% (inactive)"
molecule=CN1CCN(c2ccc3c(c2)nc(NNC(=O)c2cnccn2)c2cccn23)CC1 result_type=growth recorded_value="44.8% (inactive)"
molecule=COc1ccc(/C=C/C(=O)c2cc3c(N)c(C(=O)Nc4ccc(OC)cc4)sc3nc2C)cc1 result_type=growth recorded_value="40.8% (inactive)"
molecule=COc1cc(-c2nc(SCCC(C)C)nc(N3CCOCC3)c2C#N)cc(OC)c1OC result_type=growth recorded_value="46.5% (inactive)"
molecule=COc1ccc(Cl)cc1Nc1nc(C(F)(F)F)ccc1C(=O)N/N=C/c1ccccc1Cl result_type=growth recorded_value="15.6% (inactive)"
molecule=COc1ccc2cc(Cn3cc[n+](Cc4ccc5ccccc5c4)c3)ccc2c1 result_type=growth recorded_value="9.68% (active)"
molecule=Cn1cccc1/C=C1\C(=O)Nc2ccccc21 result_type=growth recorded_value="72.2% (inactive)"
molecule="C#CC#CC#CC#CC#CC#CC#CC#CCC1OCC(COC(=O)O[C@@H](C(=O)O[C@H]2C[C@@]3(O)[C@@H](OC(=O)c4ccccc4)[C@@H]4[C@]5(OC(C)=O)CO[C@@H]5C[C@H](O)[C@@]4(C)C(=O)[C@H](OC(C)=O)C(=C2C)C3(C)C)[C@@H](NC(=O)c2ccccc2)c2ccccc2)O1 (stereo partly drawn)" result_type=growth recorded_value="48% (inactive)"

====

Test system: SK-MEL-5 melanoma
Assay: NCI-60 one-dose screen, 48 h (100 = growth as untreated, 0 = no growth, -100 = all killed)
Conditions: 10 µM unless noted
The panel holds about 83,000 compounds, 20% with a hit somewhere; the sample as a whole holds those more often. Calls of active or inactive are those of the source. Rule for the calls: active = growth percent below 10; inactive = the rest.
growth reference
result-type: growth

molecule=S=c1ssnc1-c1cccs1 result_type=growth recorded_value="57.3% (inactive)"
molecule=CCOC(=O)c1c2c(n3c1NCC3)-c1ccccc1C2=O result_type=growth recorded_value="93.3% (inactive)"
molecule=COc1ccc(C2=C/C(=C\c3ccc(Cl)cc3)C(=O)N2/N=C/c2ccc(Cl)cc2)cc1 result_type=growth recorded_value="99.5% (inactive)"
molecule=COc1cc(/C=C2\CN(S(=O)(=O)c3ccc(C)cc3)C/C(=C\c3cc(CN4CCCCC4)c(O)c(OC)c3)C2=O)cc(CN2CCCCC2)c1O result_type=growth recorded_value="-88.9% (active)"
molecule="O=C(NCc1ccc2c(c1)OCO2)NCC1CCCC(CNC(=O)NCc2ccc3c(c2)OCO3)C1 (stereo not drawn)" result_type=growth recorded_value="102% (inactive)"
molecule=CC1(C)CCC(S(=O)(=O)c2ccc3c(c2)/C(=N\O)c2cc(S(=O)(=O)N4CCN(c5ccc(F)cc5O)CC4)ccc2-3)CC1 result_type=growth recorded_value="-93.6% (active)"
molecule=CN1CCN(C(=O)c2cc(-c3ccc4ncnc(N5CCc6cc(F)c(Cl)cc65)c4c3)cnc2N)CC1 result_type=growth recorded_value="-97.1% (active)"
molecule=C=C1C(=O)O[C@H]2[C@H]1CC/C(COC(=O)/C=C\C(=O)NCc1ccc(Cn3c(=O)sn(-c4ccccc4)c3=O)cc1)=C\CC[C@@]1(C)O[C@@H]21 result_type=growth recorded_value="106% (inactive)"

====

Tested on: M14 melanoma
Assay: NCI-60 one-dose screen, 48 h (100 = growth as untreated, 0 = no growth, -100 = all killed)
Conditions: 10 µM unless noted
The panel holds about 83,000 compounds, 20% with a hit somewhere; the sample as a whole holds those more often.
growth reference
result-type: growth (%)

smiles_code=COc1cc2c3c(c1O)-c1ccccc1[C@@H]1OC(=O)N(CC2)[C@H]31 result_type=growth result_unit=% recorded_value=103
smiles_code=COc1ccccc1-n1c(-c2cc(O)ccc2C)cn2c3c(=O)[nH]c(=O)n(C)c3nc12 result_type=growth result_unit=% recorded_value=92.2
smiles_code=O=C(OC[C@@H]1CO1)c1cccc2c(=O)c3ccccc3[nH]c12 result_type=growth result_unit=% recorded_value=-65.8
smiles_code=COC(=O)c1nc(-c2ccccc2)oc1S(=O)(=O)N1CCC(C(N)=O)CC1 result_type=growth result_unit=% recorded_value=48.1
smiles_code=C/C(=C(/c1ccc(Cl)cc1)c1ccc(OCCCN(C)C)cc1)c1ccc(Cl)cc1 result_type=growth result_unit=% recorded_value=91.5
smiles_code=O=C(Nc1cccnc1Nc1ccc(Cl)cc1)c1cn(Cc2ccc(F)cc2)nn1 result_type=growth result_unit=% recorded_value=101
smiles_code=CC(C)c1ccc(NC(=O)Nc2ccc(NC(=O)c3ccccc3N)cc2)cc1 result_type=growth result_unit=% recorded_value=34
smiles_code=CC(=O)c1cc(-c2ccccc2N)n(-c2ccc3c(c2)OCO3)c1C result_type=growth result_unit=% recorded_value=10
smiles_code=Cc1c2ccccc2nc2c1ccc1cccnc12 result_type=growth result_unit=% recorded_value=84.9
smiles_code=COC(=O)/C=C1/SC(=Nc2cccc(Cl)c2)N(CCc2c[nH]c3ccc(O)cc23)C1=O result_type=growth result_unit=% recorded_value=13

====

Test system: UO-31 renal
Assay: NCI-60 one-dose screen, 48 h (100 = growth as untreated, 0 = no growth, -100 = all killed)
Settings: 10 µM unless noted
About 83,000 compounds went through this panel and 20% of them were active in at least one assay; those are over-represented in the sample as a whole.
growth less than 80% is met; growth greater than or equal to 80% is not met.

compound=CC(C)(CO)N(CCO)CCO class_assignment="not met"
compound=O=C(O)CCCn1c(SCc2c(Cl)cccc2Cl)nc2ccsc2c1=O class_assignment=met
compound=O=C1CCCc2nc3sc4c(=O)n(-c5ccccc5Cl)nnc4c3cc21 class_assignment="not met"
compound=Cn1cc(-c2ccc3cc(-c4ccc(CC(=O)Nc5cc(C(C)(C)C)on5)cc4)cnc3c2)cn1 class_assignment=met
compound=CN(C)c1ccc(/C=C/C(=O)c2ccccc2)cc1 class_assignment=met
compound="C[Se]C(=O)CC1=C2C=C(F)C=CC2/C(=C\\c2ccc(S(C)=O)cc2)C1C (stereo not given)" class_assignment=met
compound=C/C(=C(\c1ccc(OCCN2CCCCCC2)cc1)c1ccc(OC(=O)Cc2ccccc2)cc1)c1ccc(Cl)cc1 class_assignment=met
compound=COc1cc(C(=O)c2c(-c3ccccc3)oc3c(OC)cccc23)cc(OC)c1O class_assignment=met

====

Tested on: DU-145 prostate
Assay: NCI-60 one-dose screen, 48 h
Conditions: 10 µM unless noted
This is part of a sample that, as a whole, favours compounds with a hit. Of some 83,000 tested, about 20% had one in any assay. Activity calls are given as the source filed them. The calls were made as follows: active = growth percent below 10; inactive = the rest.
Outcomes: 1 (yes) = active, 0 (no) = inactive

molecule="CC1CN=C(c2cccc(-c3ccc(-c4ccccc4)o3)c2)N1 (centres undefined)" target_or_system="DU-145 prostate" class_assignment="0 (no)"
molecule="CC(=O)N/C(=C1/OC(C(O)C(O)C(O)CO)CN1C)[P+](c1ccccc1)(c1ccccc1)c1ccccc1 (centres undefined)" target_or_system="DU-145 prostate" class_assignment="0 (no)"
molecule=NC(=O)c1ccc(NC(=O)c2oc3ccccc3c2-c2cnn(-c3ccccc3)c2)cc1 target_or_system="DU-145 prostate" class_assignment="1 (yes)"
molecule="COc1ccc(C2C3=C(COC3=O)N(CCO)c3cc4c(cc32)OCCO4)cc1OC (centres undefined)" target_or_system="DU-145 prostate" class_assignment="0 (no)"
molecule=CCN(CC)S(=O)(=O)c1ccc(S(=O)(=O)N2CCC[C@@H](C(=O)N3CCN(C(=O)OC(C)(C)C)CC3)C2)cc1 target_or_system="DU-145 prostate" class_assignment="0 (no)"
molecule=N=c1c2c(=N)n3c(nc2nc2n1-c1ccccc1Sc1ccccc1-2)sc1cc(Cl)ccc13 target_or_system="DU-145 prostate" class_assignment="0 (no)"
molecule=CCCCNC1=C(OCC)C(=O)c2ccccc2C1=O target_or_system="DU-145 prostate" class_assignment="0 (no)"
molecule=COP(=O)(OC)c1nnn(-c2cccc([N+](=O)[O-])c2)c1C target_or_system="DU-145 prostate" class_assignment="0 (no)"
molecule="Cc1ccc2[nH]c(=O)c3c(c2c1)OC(N)=C(C#N)C31C(=O)c2cccc3cccc1c23 (centres undefined)" target_or_system="DU-145 prostate" class_assignment="0 (no)"
